Kindly state pKi for each of the entries shown.
Target: hGRK-2 (Homo sapiens, UniProt P25098)
Sequence (P25098 1-689): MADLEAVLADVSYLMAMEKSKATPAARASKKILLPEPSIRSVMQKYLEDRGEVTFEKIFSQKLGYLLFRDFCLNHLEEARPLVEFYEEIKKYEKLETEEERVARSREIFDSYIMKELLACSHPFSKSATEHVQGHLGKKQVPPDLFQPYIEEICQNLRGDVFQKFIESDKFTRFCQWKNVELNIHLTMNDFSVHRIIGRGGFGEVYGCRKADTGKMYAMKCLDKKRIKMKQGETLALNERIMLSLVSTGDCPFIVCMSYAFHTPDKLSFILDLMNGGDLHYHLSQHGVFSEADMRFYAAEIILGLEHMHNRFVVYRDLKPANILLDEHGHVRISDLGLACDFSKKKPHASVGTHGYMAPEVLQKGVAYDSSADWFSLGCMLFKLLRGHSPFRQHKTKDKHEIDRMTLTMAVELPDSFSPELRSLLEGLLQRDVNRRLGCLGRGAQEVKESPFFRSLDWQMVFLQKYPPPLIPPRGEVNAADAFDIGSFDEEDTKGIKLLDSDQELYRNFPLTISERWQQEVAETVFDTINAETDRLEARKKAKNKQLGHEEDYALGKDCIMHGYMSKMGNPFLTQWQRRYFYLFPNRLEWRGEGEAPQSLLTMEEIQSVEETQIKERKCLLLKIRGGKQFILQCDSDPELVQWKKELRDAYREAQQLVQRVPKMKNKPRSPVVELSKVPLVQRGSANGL
pKi: −log10 of the molar value.

Q: Tell me reported pKi for "O=C(CNc1ccc(Cl)cc1)N/N=C/c1ccncc1" , tested with hGRK-2 (Homo sapiens, UniProt P25098).
Result: 5.00 to 6.00

Q: Tell me reported pKi for "O=C(CNc1cccc(Br)c1)N/N=C/c1ccncc1" , tested with hGRK-2 (Homo sapiens, UniProt P25098).
Result: 6.00 to 7.00

Q: Tell me reported pKi for "O=C(CNc1cccc(F)c1)N/N=C/c1c(Cl)cncc1Cl" , tested with hGRK-2 (Homo sapiens, UniProt P25098).
Result: 6.00 to 7.00

Q: Tell me reported pKi for "C/C(=N\NC(=O)CNc1cccc(OCc2ccccc2)c1)c1ccncc1" , tested with hGRK-2 (Homo sapiens, UniProt P25098).
Result: 6.00 to 7.00

Q: Tell me reported pKi for "CNC(=O)c1cccc(NCC(=O)N/N=C/c2c(Cl)cncc2Cl)c1" , tested with hGRK-2 (Homo sapiens, UniProt P25098).
Result: 6.00 to 7.00

Q: Tell me reported pKi for "COc1cccc(NCC(=O)N/N=C/c2ccncc2)c1" , tested with hGRK-2 (Homo sapiens, UniProt P25098).
Result: 7.00 to 8.00

Q: Tell me reported pKi for "CC(C)c1cccc(NCC(=O)N/N=C/c2ccncc2)c1" , tested with hGRK-2 (Homo sapiens, UniProt P25098).
Result: < 5.00

Q: Tell me reported pKi for "O=C(CNc1cccc(C(=O)Nc2ccccc2)c1)N/N=C/c1c(Cl)cncc1Cl" , tested with hGRK-2 (Homo sapiens, UniProt P25098).
Result: 6.00 to 7.00

Q: Tell me reported pKi for "NS(=O)(=O)c1cccc(NCC(=O)N/N=C/c2ccncc2)c1" , tested with hGRK-2 (Homo sapiens, UniProt P25098).
Result: 6.00 to 7.00

Q: Tell me reported pKi for "O=C(CNc1cccc(Br)c1)N/N=C/c1c(Cl)cncc1Cl" , tested with hGRK-2 (Homo sapiens, UniProt P25098).
Result: 5.00 to 6.00

Q: Tell me reported pKi for "O=C(CNc1cccc(OCc2ccccc2)c1)N/N=C/c1c(Cl)cncc1Cl" , tested with hGRK-2 (Homo sapiens, UniProt P25098).
Result: 6.00 to 7.00

Q: Tell me reported pKi for "O=C(CNc1cccc(-n2cncn2)c1)N/N=C/c1ccncc1" , tested with hGRK-2 (Homo sapiens, UniProt P25098).
Result: < 5.00

Q: Tell me reported pKi for "O=C(CNc1cccc(Oc2ccc(F)cc2F)c1)N/N=C/c1ccncc1" , tested with hGRK-2 (Homo sapiens, UniProt P25098).
Result: 7.00 to 8.00

Q: Tell me reported pKi for "CC(=O)Nc1cccc(NCC(=O)N/N=C/c2c(Cl)cncc2Cl)c1" , tested with hGRK-2 (Homo sapiens, UniProt P25098).
Result: 5.00 to 6.00

Q: Tell me reported pKi for "Cc1ccccc1NCC(=O)N/N=C/c1c(Cl)cncc1Cl" , tested with hGRK-2 (Homo sapiens, UniProt P25098).
Result: 5.00 to 6.00

Q: Tell me reported pKi for "CSc1cccc(NCC(=O)N/N=C/c2c(Cl)cncc2Cl)c1" , tested with hGRK-2 (Homo sapiens, UniProt P25098).
Result: 6.00 to 7.00

Q: Tell me reported pKi for "CS(=O)(=O)Nc1cccc(NCC(=O)N/N=C/c2ccncc2)c1" , tested with hGRK-2 (Homo sapiens, UniProt P25098).
Result: < 5.00

Q: Tell me reported pKi for "CC(C)Oc1cccc(NCC(=O)N/N=C/c2c(Cl)cncc2Cl)c1" , tested with hGRK-2 (Homo sapiens, UniProt P25098).
Result: 5.00 to 6.00

Q: Tell me reported pKi for "O=C(CNc1cccc(Cl)c1)N/N=C/c1ccncc1" , tested with hGRK-2 (Homo sapiens, UniProt P25098).
Result: 6.00 to 7.00

Q: Tell me reported pKi for CC(Nc1cccc(Oc2ccccc2)c1)C(=O)N/N=C/c1c(Cl)cncc1Cl (centres unmarked) , tested with hGRK-2 (Homo sapiens, UniProt P25098).
Result: < 5.00

Q: Tell me reported pKi for "NS(=O)(=O)c1cccc(NCC(=O)N/N=C/c2c(Cl)cncc2Cl)c1" , tested with hGRK-2 (Homo sapiens, UniProt P25098).
Result: 6.00 to 7.00

Q: Tell me reported pKi for "O=C(CNc1ccccc1Cc1ccccc1)N/N=C/c1ccncc1" , tested with hGRK-2 (Homo sapiens, UniProt P25098).
Result: 5.00 to 6.00

Q: Tell me reported pKi for "O=C(CNc1cccc(Oc2cccnc2)c1)N/N=C/c1ccncc1" , tested with hGRK-2 (Homo sapiens, UniProt P25098).
Result: 6.00 to 7.00

Q: Tell me reported pKi for "N#Cc1ccc(NCC(=O)N/N=C/c2ccncc2)cc1" , tested with hGRK-2 (Homo sapiens, UniProt P25098).
Result: 5.00 to 6.00

Q: Tell me reported pKi for "CCc1cccc(NCC(=O)N/N=C/c2ccncc2)c1" , tested with hGRK-2 (Homo sapiens, UniProt P25098).
Result: 5.00 to 6.00

Q: Tell me reported pKi for "O=C(CNc1ccc(C(F)(F)F)cc1)N/N=C/c1ccncc1" , tested with hGRK-2 (Homo sapiens, UniProt P25098).
Result: < 5.00

Q: Tell me reported pKi for "COc1ccccc1NCC(=O)N/N=C/c1ccncc1" , tested with hGRK-2 (Homo sapiens, UniProt P25098).
Result: < 5.00

Q: Tell me reported pKi for "NC(=O)c1cccc(NCC(=O)N/N=C/c2ccncc2)c1" , tested with hGRK-2 (Homo sapiens, UniProt P25098).
Result: 6.00 to 7.00

Q: Tell me reported pKi for "O=C(CNc1cccc(Oc2ccc(F)c(F)c2)c1)N/N=C/c1ccncc1" , tested with hGRK-2 (Homo sapiens, UniProt P25098).
Result: 6.00 to 7.00

Q: Tell me reported pKi for "O=C(CNc1ccc(F)cc1)N/N=C/c1c(Cl)cncc1Cl" , tested with hGRK-2 (Homo sapiens, UniProt P25098).
Result: 5.00 to 6.00

Q: Tell me reported pKi for "O=C(CNc1cccc(C(=O)Nc2cccnc2)c1)N/N=C/c1ccncc1" , tested with hGRK-2 (Homo sapiens, UniProt P25098).
Result: 6.00 to 7.00

Q: Tell me reported pKi for "O=C(CNc1cccc(C(F)(F)F)c1)N/N=C/c1ccncc1" , tested with hGRK-2 (Homo sapiens, UniProt P25098).
Result: 5.00 to 6.00

Q: Tell me reported pKi for "Cc1ccc(NCC(=O)N/N=C/c2ccncc2)cc1" , tested with hGRK-2 (Homo sapiens, UniProt P25098).
Result: < 5.00

Q: Tell me reported pKi for "Cn1cncc1/C=N/NC(=O)CNc1cccc(Cl)c1" , tested with hGRK-2 (Homo sapiens, UniProt P25098).
Result: < 5.00

Q: Tell me reported pKi for "O=C(CNc1cccc(OCCN2CCOCC2)c1)N/N=C/c1c(Cl)cncc1Cl" , tested with hGRK-2 (Homo sapiens, UniProt P25098).
Result: 5.00 to 6.00
